- Tested on: HeLa
- method_summary: Cytotoxicity against human HeLa cells after 72 hrs by calcein-AM dye based fluorescence assay
- Format: functional, cell-based
Here the recorded pIC50 is given for each entry.
In textbook form, pIC50 equals minus log to base ten of the concentration in mol/L.

C=C(C)[C@@H]1CC[C@]2(C(=O)NCc3ccccn3)CC[C@]3(C)[C@H](CC[C@@H]4[C@@]5(C)CC[C@H](O)C(C)(C)[C@@H]5CC[C@]43C)[C@@H]12	4.83
C=C(C)[C@@H]1CC[C@]2(C(=O)NCc3ccncc3)CC[C@]3(C)[C@H](CC[C@@H]4[C@@]5(C)CC[C@H](O)C(C)(C)[C@@H]5CC[C@]43C)[C@@H]12	4.83
C=C(C)[C@@H]1CC[C@]2(C(=O)O)CC[C@]3(C)[C@H](CC[C@@H]4[C@@]5(C)CC[C@H](OC(=O)CCC(=O)NCc6ccccn6)C(C)(C)[C@@H]5CC[C@]43C)[C@@H]12	5.64
C=C(C)[C@@H]1CC[C@]2(C(=O)O)CC[C@]3(C)[C@H](CC[C@@H]4[C@@]5(C)CC[C@H](OC(=O)CCC(=O)NCc6cccnc6)C(C)(C)[C@@H]5CC[C@]43C)[C@@H]12	5.62
C=C(C)[C@@H]1CC[C@]2(C(=O)NCc3cccnc3)CC[C@]3(C)[C@H](CC[C@@H]4[C@@]5(C)CC[C@H](O)C(C)(C)[C@@H]5CC[C@]43C)[C@@H]12	4.63

Next, consider the following compound.
[Q] Using known records, supply pIC50 for C=C(C)[C@@H]1CC[C@]2(C(=O)O)CC[C@]3(C)[C@H](CC[C@@H]4[C@@]5(C)CC[C@H](OC(=O)CCC(=O)NCc6ccncc6)C(C)(C)[C@@H]5CC[C@]43C)[C@@H]12
[A] 4.39
